experiment: Human HepG2 cell viability assay in 384 well format; format: toxicity, cell-based; set-up: dose 125 nL, time 70.5 hour; concentration not given beside the values; settings: HepG2 cells, read-out: Inhibition
metric: cytotoxicity at 70.5 h

compound	measured
Cn1cccc1C(=O)N1CCn2cc(CNC(=O)CC3CC3)nc2C1	-10.2%

For the compound CC(C)c1nccn1-c1cncc(C2CCCN(C3CCCC3)C2)n1 (stereo unspecified) , what cytotoxicity at 70.5 h is on record?
19.3%

Request: CS(=O)(=O)NCC1CCCCN1C(=O)c1ccc(Br)s1 (stereo unspecified)
-6.12%

Would you mind doing Cc1cc(C)cc(C2(C(=O)NC(C)Cn3ccnc3)CC2)c1 (stereo unspecified) as well?
9.35%

Query "O=C(CCN1C(=O)CCC1=O)Nc1ccc(OCC(F)(F)F)nc1" next
-0.0202%

Next compound: c1ccc(CCN2CCCC2c2ccnc(Nc3cnccn3)n2)cc1 (stereo unspecified)
-3.41%

----------
experiment: Human HepG2 cell viability assay in 384 well format; type: toxicity, cell-based; set-up: dose 125 nL, time 70.5 hour; concentration not given beside the values; settings: HepG2 cells, read-out: Inhibition
// values below are reported cytotoxicity at 70.5 h
The reply should be a number in %, with the unit left off.

Below: 5 compounds and their reported cytotoxicity at 70.5 h.
compound	metric	measured
CCc1ccc(C(O)CN2CCN(c3cccc(OC)c3)CC2)cc1 (configuration not stated)	cytotoxicity at 70.5 h	-29.4
Cc1c(CC(C#N)C(=O)Nc2cccc(O)c2)cnn1C (configuration not stated)	cytotoxicity at 70.5 h	-12.8
COCCc1noc(-c2cn(Cc3ccc(OC)cc3)nn2)n1	cytotoxicity at 70.5 h	7.6
Cc1ncc2c(n1)CN(Cc1cccc3c1OCCO3)CC2	cytotoxicity at 70.5 h	-1.1
CCN1CCOCC12CCN(C(=O)Cc1cccs1)CC2	cytotoxicity at 70.5 h	-8.5

May I ask what cytotoxicity at 70.5 h has been recorded for "CC[C@H](C)[C@H](NC(=O)c1ccc(-n2cnnn2)cc1)C(=O)OC" ?
10.1

Lookup CC(C)C(NC(=O)Nc1ccccn1)c1cccs1 (configuration not stated)
28.6

Same thing, different compound: "CCc1cnc(C)nc1NCCSc1nnc(C)n1CC"
0.501

Same thing, different compound: "Cc1ccccc1-c1cncc(C2CCN(S(=O)(=O)N(C)C)CC2)n1"
-2.74

Again, but for "CCN(CC(=O)NC(C)(C)C)Cc1cccc2c1OCCO2"
-11.6

// query: "O=C(Nc1cnccn1)[C@H]1CO[C@H]2CCN(c3ncc(F)cn3)C[C@H]2C1"
15

Param item: "CC1=N[C@@]2(CC[C@@H]3CN(CC4CC4)C[C@@H]32)C(=O)N1CC1CC1"
-13.6

----------
Reported values of cytotoxicity at 70.5 h for individual entries
experiment: Human HepG2 cell viability assay in 384 well format; type: toxicity, cell-based; set-up: dose 125 nL, time 70.5 hour; concentration not given beside the values; conditions: HepG2 cells, read-out: Inhibition
Report only the number, with the unit % understood.

molecule	cytotoxicity at 70.5 h (%)
CC(C(=O)NCc1ccnc(N(C)C)c1)n1cccn1 (configuration not stated)	-3.71
Cc1nc(CCNC(=O)C(N)c2c(C)n[nH]c2C)sc1C (configuration not stated)	-13.1
CCOCC1c2c(cnn2C)CCN1C(=O)c1cc(C)on1 (configuration not stated)	6.2
CCc1oc(C(=O)N2CC[C@H]3CC[C@@H](C2)N3)cc1CN(CC)CC	-8.75
COC[C@H]1CC[C@@H]2[C@@H](CCN2Cc2ccccn2)O1	22.1
CCCc1nc(C(=O)NCc2cccnc2-n2cncn2)cs1	7.67
Cn1cccc1C(=O)N[C@@H]1CN(CC2CC2)[C@@H]2COC[C@@H]21	-5.94
Cc1csc(CNCC2CCCN(C(=O)OC(C)(C)C)C2)n1 (configuration not stated)	-1.06
CN(c1ccc(C(=O)NCCCN2CCCCC2)c(Cl)c1)S(C)(=O)=O	-2.79
Cc1nn(C)c2ncnc(N(C)CC3CCN(CC(C)C)C3)c12 (configuration not stated)	-2.77

Attention now shifts to the item below.
// cytotoxicity at 70.5 h lookup, key: CC(C)c1ccc(/C=C/CC(=O)NC2CCN(C(N)=O)C2)cc1 (configuration not stated)
9
